# measurement.protocol: Pharmacokinetics after a single oral administration in male dogs
# Design: species or system dog
# run.parameters: in vivo; male dog, single oral, nominal dose 1 mg/kg, mean ± SD (n = 3)
# Method: Following a single oral administration of Compound I in male animals, Compound I mean tmax values were 9 hours in rats, 4 hours in dogs, and 3 hours in monkeys. Compound I Pharmacokinetic Parameters Following a Single Oral Administration of Compound I in Male Rats, Dogs, and Monkeys
experimental.endpoint: half-life (h)

1. CC1(C)C[C@@H]2CCCNc3cccc(n3)S(=O)(=O)NC(=O)c3ccc(-n4ccc(OCCC5C6(CC6)C56CC6)n4)nc3N1C2 = 11.1

====

# measurement.protocol: Pharmacokinetics after a single oral administration in male rats
# Set-up: species or system rat
# run.parameters: in vivo; male rat, single oral, nominal dose 3 mg/kg, mean ± SD (n = 3)
experimental.endpoint: Cmax (ng/mL)

1) CC1(C)C[C@@H]2CCCNc3cccc(n3)S(=O)(=O)NC(=O)c3ccc(-n4ccc(OCCC5C6(CC6)C56CC6)n4)nc3N1C2 = 1100

====

# measurement.protocol: Pharmacokinetics after a single oral administration in male dogs
# Parameters: species or system dog
# run.parameters: in vivo; male dog, single oral, nominal dose 1 mg/kg; read-out: F (oral bioavailability)
experimental.endpoint: bioavailability (%)

1. CC1(C)C[C@@H]2CCCNc3cccc(n3)S(=O)(=O)NC(=O)c3ccc(-n4ccc(OCCC5C6(CC6)C56CC6)n4)nc3N1C2 = 49.7

====

# measurement.target: CFTR-mediated chloride transport (Homo sapiens)
# Sequence (P13569 whole entry): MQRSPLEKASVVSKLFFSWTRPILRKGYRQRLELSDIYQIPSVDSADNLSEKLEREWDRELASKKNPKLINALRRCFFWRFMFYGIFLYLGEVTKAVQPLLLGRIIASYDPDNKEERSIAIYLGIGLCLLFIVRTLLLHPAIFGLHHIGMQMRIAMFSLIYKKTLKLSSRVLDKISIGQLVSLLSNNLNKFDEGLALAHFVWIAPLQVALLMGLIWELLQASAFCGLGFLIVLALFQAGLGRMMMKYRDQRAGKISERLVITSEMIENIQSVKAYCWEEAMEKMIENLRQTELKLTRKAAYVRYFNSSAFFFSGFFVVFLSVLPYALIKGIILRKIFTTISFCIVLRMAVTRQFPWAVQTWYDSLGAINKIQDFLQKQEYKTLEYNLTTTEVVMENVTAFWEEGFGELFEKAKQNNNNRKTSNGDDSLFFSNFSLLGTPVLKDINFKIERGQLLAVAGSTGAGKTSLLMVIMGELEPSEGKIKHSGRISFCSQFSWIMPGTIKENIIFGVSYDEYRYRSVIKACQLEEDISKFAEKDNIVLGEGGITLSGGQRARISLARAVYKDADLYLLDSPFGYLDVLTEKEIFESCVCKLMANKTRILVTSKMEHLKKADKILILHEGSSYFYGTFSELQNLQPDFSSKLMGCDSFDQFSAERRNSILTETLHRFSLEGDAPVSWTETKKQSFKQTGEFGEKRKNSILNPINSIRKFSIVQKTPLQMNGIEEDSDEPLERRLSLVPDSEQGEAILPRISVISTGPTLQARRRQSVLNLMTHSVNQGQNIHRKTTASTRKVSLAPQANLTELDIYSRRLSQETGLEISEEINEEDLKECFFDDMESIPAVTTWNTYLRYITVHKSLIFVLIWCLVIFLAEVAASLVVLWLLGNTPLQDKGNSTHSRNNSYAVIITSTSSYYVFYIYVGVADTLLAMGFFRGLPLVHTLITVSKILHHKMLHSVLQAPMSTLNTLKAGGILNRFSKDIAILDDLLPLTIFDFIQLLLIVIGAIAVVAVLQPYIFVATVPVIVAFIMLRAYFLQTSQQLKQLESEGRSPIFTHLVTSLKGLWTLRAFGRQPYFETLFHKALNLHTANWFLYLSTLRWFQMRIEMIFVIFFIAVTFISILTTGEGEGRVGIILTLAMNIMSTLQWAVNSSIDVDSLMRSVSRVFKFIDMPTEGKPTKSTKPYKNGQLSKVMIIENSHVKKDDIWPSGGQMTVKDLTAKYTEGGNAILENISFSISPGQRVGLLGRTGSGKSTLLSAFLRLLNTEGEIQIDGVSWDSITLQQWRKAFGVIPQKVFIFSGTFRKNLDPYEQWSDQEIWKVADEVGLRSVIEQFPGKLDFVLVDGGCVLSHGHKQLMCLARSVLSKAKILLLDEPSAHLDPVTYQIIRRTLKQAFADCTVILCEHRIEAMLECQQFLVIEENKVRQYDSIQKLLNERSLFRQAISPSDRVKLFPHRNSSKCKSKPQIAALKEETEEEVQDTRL
# measurement.protocol: Membrane potential dye assay in enteroid cells
# run.parameters: enteroid cells, 18-24 hours incubation; acute 10 μM forskolin and 300 nM Compound III
# Protocol: Base medium (ADF+++) consisted of Advanced DMEM/Ham's F12, 2 mM Glutamax, 10 mM HEPES, […] penicillin/streptomycin. […] Enteroid cells were incubated with test compound in IEMM for 18-24 hours at 37° C., 95% humidity and 5% CO2. […] Chloride transport was initiated by addition of Chloride Free Dye Stimulation Solution and the fluorescence signal was read for 15 min. […]
pEC50: −log10 of the molar value.
experimental.endpoint: pEC50

1. CC1(C)C[C@@H]2CCCNc3cccc(n3)S(=O)(=O)NC(=O)c3ccc(-n4ccc(OCCC5C6(CC6)C56CC6)n4)nc3N1C2 [Compound I] = > 6.00

====

# measurement.protocol: Pharmacokinetics after a single oral administration in male rats
# Parameters: species or system rat
# run.parameters: in vivo; male rat, single oral, nominal dose 3 mg/kg, mean ± SD (n = 3)
experimental.endpoint: AUC(0-inf)

1. CC1(C)C[C@@H]2CCCNc3cccc(n3)S(=O)(=O)NC(=O)c3ccc(-n4ccc(OCCC5C6(CC6)C56CC6)n4)nc3N1C2 [Compound I] = 31900 ng·h/mL

====

# measurement.protocol: Pharmacokinetics after a single oral administration in male rats
# Parameters: species or system rat
# run.parameters: male, rat, in vivo, po, 3 mg/kg, male rats, single oral administration; read-out: mean tmax
experimental.endpoint: Tmax (h)

1) CC1(C)C[C@@H]2CCCNc3cccc(n3)S(=O)(=O)NC(=O)c3ccc(-n4ccc(OCCC5C6(CC6)C56CC6)n4)nc3N1C2 = 9

====

# measurement.protocol: Pharmacokinetics after a single oral administration in male monkeys
# Design: species or system monkey
# run.parameters: male, monkey, in vivo, po, 1 mg/kg, male monkeys, single oral administration; read-out: mean tmax
experimental.endpoint: Tmax (h)

1. CC1(C)C[C@@H]2CCCNc3cccc(n3)S(=O)(=O)NC(=O)c3ccc(-n4ccc(OCCC5C6(CC6)C56CC6)n4)nc3N1C2 = 3
